Biological target: human orexin-2 receptor (Homo sapiens, UniProt O43614)
Sequence (O43614 whole entry): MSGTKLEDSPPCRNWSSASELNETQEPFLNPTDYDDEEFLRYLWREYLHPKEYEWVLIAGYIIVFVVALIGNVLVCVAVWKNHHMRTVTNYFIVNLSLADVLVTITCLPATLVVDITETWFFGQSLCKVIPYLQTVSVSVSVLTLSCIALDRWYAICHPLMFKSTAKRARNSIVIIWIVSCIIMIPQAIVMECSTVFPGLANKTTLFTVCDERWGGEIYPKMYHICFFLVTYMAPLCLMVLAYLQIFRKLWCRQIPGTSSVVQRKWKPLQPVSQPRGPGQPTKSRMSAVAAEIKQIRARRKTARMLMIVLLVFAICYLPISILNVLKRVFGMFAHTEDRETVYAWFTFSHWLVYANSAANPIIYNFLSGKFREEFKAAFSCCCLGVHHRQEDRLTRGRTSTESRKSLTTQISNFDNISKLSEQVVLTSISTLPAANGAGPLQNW
Test: Intracellular calcium measurements (FLIPR), orexin receptor antagonistic activity, OX2
Details: CHO cells expressing the human orexin-2 receptor; 10 nM orexin-A as agonist; fluo-3 calcium signal
assayEndpoint: IC50 (nM)

>>> resultvalue("O=C(c1ccccc1-c1ccccc1F)N1CCC[C@@H](Nc2ncc(Br)cn2)C1")
171

1 = Cc1ccc(-c2sc(C)nc2C(=O)N2CCC[C@@H](NC(=O)c3c(C)nc4sccn34)C2)cc1
2 = O=C(c1ccccc1-c1ccccc1)N1CCC[C@@H](Nc2ncc(Br)cn2)C1
3 = Cc1nc(C(=O)N2CCC[C@@H](NC(=O)c3c(C)nc4sccn34)C2)c(-c2ccccc2F)s1
4 = Cc1cccc(-c2sc(C)nc2C(=O)N2CCC[C@@H](NC(=O)c3c(C)nc4sccn34)C2)c1
Ascending sort, IC50. Please express your ranking as an ordered list of the labels. 4, 3, 1, 2

* * *

Biological target: human orexin-1 receptor (Homo sapiens, UniProt O43613)
Sequence (O43613 whole entry): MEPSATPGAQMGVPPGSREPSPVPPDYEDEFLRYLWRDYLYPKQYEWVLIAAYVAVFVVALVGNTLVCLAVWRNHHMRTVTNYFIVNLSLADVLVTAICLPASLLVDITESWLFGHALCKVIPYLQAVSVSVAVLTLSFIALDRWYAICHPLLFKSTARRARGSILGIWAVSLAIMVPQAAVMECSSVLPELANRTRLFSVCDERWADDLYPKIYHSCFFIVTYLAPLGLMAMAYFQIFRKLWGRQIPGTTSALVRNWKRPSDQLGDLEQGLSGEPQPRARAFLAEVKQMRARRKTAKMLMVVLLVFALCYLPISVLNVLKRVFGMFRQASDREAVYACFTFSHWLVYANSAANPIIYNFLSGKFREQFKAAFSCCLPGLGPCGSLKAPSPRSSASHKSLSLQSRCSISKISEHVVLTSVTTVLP
Test: Intracellular calcium measurements (FLIPR), orexin receptor antagonistic activity, OX1
Conditions: CHO cells expressing the human orexin-1 receptor; 10 nM orexin-A as agonist; fluo-3 calcium signal
assayEndpoint: IC50 (nM)

1 = O=C(c1ccccc1-c1ccccc1F)N1CCC[C@@H](Nc2ncc(Br)cn2)C1
2 = Cc1cccc(-c2sc(C)nc2C(=O)N2CCC[C@@H](NC(=O)c3c(C)nc4sccn34)C2)c1
3 = O=C(c1ccccc1-c1ccccc1)N1CCC[C@@H](Nc2ncc(Br)cn2)C1
Sort the items above by IC50, starting with the smallest value. Please express your ranking as an ordered list of the labels. 2, 1, 3

A = Cc1nc(C(=O)N2CCC[C@@H](NC(=O)c3c(C)nc4sccn34)C2)c(-c2ccccc2F)s1
B = Cc1ccc(-c2sc(C)nc2C(=O)N2CCC[C@@H](NC(=O)c3c(C)nc4sccn34)C2)cc1
From the recorded data, which exceeds the other in IC50: A or B ? Identify your selection by its label. B
